Tested on: Hep-2
Assay: MTT cytotoxicity assay
Type: cell-based
Settings: Homo sapiens, HEp-2, 72 h, 3 days
From the text: The cytotoxicity of the prepared tri-and tetra-cyclic thiadiazolopyrimidine compounds were examined toward various cancer cell lines, such as liver and breast cancer (MCF-7), prostate cancer (PC3), laryngeal carcinoma (Hep-2), carcinoma (HepG2), and standard normal fibroblast cells (WI38) using the MTT assay[33] at the National Research Centre (Egypt). […]
Parameter IC50: see the listing below.
Give a bare numeral; the unit µM is implied.

Would you please look over these solved cases?
N#Cc1cn2ncsc2nc1=O: 87.5
COc1ccc(N=Nc2c(O)nn3c(N)c4c(=O)nc5scnn5c4nc23)cc1 [Compound 17b]: 19

Then there is this compound:
May I ask what IC50 has been recorded for CCOC(=O)c1c(N)nc(N)c2c(=O)nc3scnn3c12 ? 34.2
